Recorded GI50, one value per entry.
System: M19-MEL
Assay: NCI tumour cell line growth inhibition, 48 h
Active and inactive are the calls of the source. No stated cut-off is given here; in the data, active = GI50 up to about 1.1 µM and inactive = higher.

[
  {
    "compound": "CC(C)C1CCC/C=C/C=C/C=C/C=C/C(OC2OC(C)C(O)C(N)C2O)CC2OC(O)(CC(O)CC(O)C(O)CCC(=O)O1)CC(O)C2C(=O)O (stereo not drawn)",
    "assay-system": "M19-MEL",
    "GI50": "> 52.5 µM (inactive)"
  },
  {
    "compound": "CCCCCC[N+](C)(C)Cc1ccc(C[N+](C)(C)CCCCCC)cc1",
    "assay-system": "M19-MEL",
    "GI50": "1.94 µM (inactive)"
  },
  {
    "compound": "C[C@H]1COC(c2ccccn2)=N1",
    "assay-system": "M19-MEL",
    "GI50": "> 100 µM (inactive)"
  },
  {
    "compound": "COC(=O)c1ccc2n[se]nc2c1",
    "assay-system": "M19-MEL",
    "GI50": "> 100 µM (inactive)"
  },
  {
    "compound": "CC(=O)C1C(=O)N(C(C)C)C[C@@H]2CCC(=O)C[C@H]12 (stereo partly drawn)",
    "assay-system": "M19-MEL",
    "GI50": "> 100 µM (inactive)"
  },
  {
    "compound": "COC(=O)C#CC(N)=O",
    "assay-system": "M19-MEL",
    "GI50": "> 64.3 µM (inactive)"
  },
  {
    "compound": "NC(Cc1cc(I)c(O)c(I)c1)C(=O)O (stereo not drawn)",
    "assay-system": "M19-MEL",
    "GI50": "> 323 µM (inactive)"
  },
  {
    "compound": "[N-]=[N+]=CC(=O)CCC(NC(=O)C(CCC(=O)C=[N+]=[N-])NC(=O)CCC(N)C(=O)O)C(=O)O (stereo not drawn)",
    "assay-system": "M19-MEL",
    "GI50": "> 100 µM (inactive)"
  }
]

----------
System: HCT-15

[
  {
    "chemical-smiles": "CC(=O)C(=CNc1c(C)n(C)n(-c2ccccc2)c1=O)C(C)=O",
    "GI50": "> 100 µM"
  },
  {
    "chemical-smiles": "N#CC(C#N)=C1C(C#N)=C(N)NC12OCCO2",
    "GI50": "> 100 µM"
  },
  {
    "chemical-smiles": "COc1ccc(NC(=O)CC(=O)N/N=C/c2ccc(N(CCC#N)S(C)(=O)=O)cc2)cc1",
    "GI50": "> 100 µM"
  }
]

----------
Tested on: MDA-N
Experiment: NCI tumour cell line growth inhibition, 48 h
Active and inactive are the calls of the source. Cut-off read from the data, not from the text of the source: active = GI50 up to about 1.1 µM and inactive = higher.
Recorded GI50, one value per entry.

[
  {
    "compound": "Oc1ccc(-c2nc3ccc4ccccc4c3c3c2CCCC3)c(O)c1",
    "GI50": "17.2 µM (inactive)"
  },
  {
    "compound": "CN(C)c1ccc(C2SCC(=O)N2c2nc3cc4sc(N5C(=O)CSC5c5ccc(N(C)C)cc5)nc4cc3s2)cc1 (stereo not drawn)",
    "GI50": "45.2 µM (inactive)"
  },
  {
    "compound": "COC(=O)CCc1cc(O)c2c(c1)C(C(=O)OC)C(c1ccc(O)c(O)c1)O2 (stereo not drawn)",
    "GI50": "1.9 µM (inactive)"
  },
  {
    "compound": "N#CC12C(=O)N3C(=NC(c4ccccc4)NC3c3ccccc3)C1(C#N)C(c1ccccc1)NC1=C2CCC1 (stereo not drawn)",
    "GI50": "> 100 µM (inactive)"
  },
  {
    "compound": "CCOC(=N)n1c(=O)n(C2=NCCN2)c2ccccc21",
    "GI50": "> 100 µM (inactive)"
  },
  {
    "compound": "O=C1C(=O)c2c(oc(=O)c3ccccc23)-c2ccccc21",
    "GI50": "24.4 µM (inactive)"
  },
  {
    "compound": "O=C1NC(N2CCCC(CO)C2)=N/C1=C\\c1ccc(O)cc1 (stereo not drawn)",
    "GI50": "> 100 µM (inactive)"
  },
  {
    "compound": "C=C1C2CC[C@@](C)(O)C2[C@H]2OC(=O)C(=C)[C@@H]2C[C@H]1O (stereo partly drawn)",
    "GI50": "24.5 µM (inactive)"
  },
  {
    "compound": "COc1cc(/N=C\\N(C)C)c2ncccc2c1",
    "GI50": "20.4 µM (inactive)"
  },
  {
    "compound": "NCCCNCCS",
    "GI50": "> 100 µM (inactive)"
  },
  {
    "compound": "CC(C)=CCc1c(O)c(CC=C(C)C)c2oc(-c3ccc(O)cc3O)c(CC=C(C)C)c(=O)c2c1O",
    "GI50": "7.82 µM (inactive)"
  },
  {
    "compound": "CCC(C)C1NC(=O)C(NC(=O)C(CC(C)C)N(C)C(=O)[C@@H]2CC(O)CN2C(=O)[C@H](C)O)C(C)OC(=O)[C@H](Cc2ccc(OC)cc2)N(C)C(=O)[C@@H]2CCCN2C(=O)[C@H](CC(C)C)NC(=O)C(C)C(=O)[C@H](C(C)C)OC(=O)CC1O (stereo partly drawn)",
    "GI50": "0.133 µM (active)"
  },
  {
    "compound": "O=C(O)CNC(=O)c1cccc2c(=O)c3ccccc3[nH]c12",
    "GI50": "> 100 µM (inactive)"
  }
]

----------
System: SF-268
Assay: NCI tumour cell line growth inhibition, 48 h
Active and inactive are the calls of the source. No stated cut-off is given here; in the data, active = GI50 up to about 1.1 µM and inactive = higher.
outcome-measure: GI50

[
  {
    "compound": "O=C(O[C@H](/C=C/c1ccccc1)P1(=O)N(Cc2ccccc2)[C@H]2CCCC[C@@H]2N1Cc1ccccc1)c1ccccc1",
    "outcome-measure": "GI50",
    "result": "4.12 µM (inactive)"
  },
  {
    "compound": "C=C(Br)CN(C)CC(=C)Br",
    "outcome-measure": "GI50",
    "result": "> 100 µM (inactive)"
  },
  {
    "compound": "Clc1ccc(OCc2nnc3sc(SSc4nn5c(COc6ccc(Cl)cc6)nnc5s4)nn23)cc1",
    "outcome-measure": "GI50",
    "result": "> 100 µM (inactive)"
  },
  {
    "compound": "CC(C)=CCC/C(C)=C/CC/C(C)=C/CC(CO)N(C)CC/C=C(\\C)CCC=C(C)C (stereo not given)",
    "outcome-measure": "GI50",
    "result": "13.3 µM (inactive)"
  },
  {
    "compound": "CCC(CC)NC1=C(NC(C)=O)C(=O)c2ccccc2C1=O",
    "outcome-measure": "GI50",
    "result": "> 50 µM (inactive)"
  },
  {
    "compound": "CCCCCC[N+](C)(C)Cc1ccc(C[N+](C)(C)CCCCCC)cc1",
    "outcome-measure": "GI50",
    "result": "2.79 µM (inactive)"
  },
  {
    "compound": "CC1CC/C(=C\\c2ccc(F)cc2)C2=C1C(c1ccc(F)cc1)n1c(s/c(=C\\c3ccc(Cl)cc3)c1=O)=N2 (stereo not given)",
    "outcome-measure": "GI50",
    "result": "> 100 µM (inactive)"
  },
  {
    "compound": "CCN(N=O)C1C2(CCCC2)NC(=O)C12CCCC2 (stereo not given)",
    "outcome-measure": "GI50",
    "result": "> 100 µM (inactive)"
  },
  {
    "compound": "CC(=O)O[C@]12CCCCC1C1(O)C(O)CCCC[C@H]12 (stereo not given in full)",
    "outcome-measure": "GI50",
    "result": "> 100 µM (inactive)"
  },
  {
    "compound": "CCC1(CC)C(=O)N(C(=O)c2ccc(Cl)cc2)N(C(=O)c2ccccc2Cl)C1=O",
    "outcome-measure": "GI50",
    "result": "35.4 µM (inactive)"
  }
]

----------
Tested on: M14
Assay: NCI tumour cell line growth inhibition, 48 h
Active and inactive are the calls of the source. Rule as the data show it: active = GI50 up to about 1.1 µM and inactive = higher.
Recorded GI50, one value per entry.
outcome-measure: GI50

[
  {
    "molecule": "Cc1ccc(S(=O)(=O)N(c2ccccc2F)C2CCCCC2O)cc1 (stereo unspecified)",
    "assay-system": "M14",
    "outcome-measure": "GI50",
    "result": "74.1 µM (inactive)"
  },
  {
    "molecule": "C[C@]12CC[C@H](OC(=O)Cc3ccc(N(CCCl)CCCl)cc3)CC1=CC[C@@H]1[C@@H]2CC[C@]2(C)C(=O)CC[C@@H]12",
    "assay-system": "M14",
    "outcome-measure": "GI50",
    "result": "> 100 µM (inactive)"
  },
  {
    "molecule": "CN(C)CCCN1C(=O)N(CCCN(C)C)c2c3cc(O)ccc3nc3c([N+](=O)[O-])ccc1c23",
    "assay-system": "M14",
    "outcome-measure": "GI50",
    "result": "32.7 µM (inactive)"
  },
  {
    "molecule": "C=C1N(C)c2ccc(S(=O)(=O)c3ccc4c(c3)C(C)(C)C(=C)N4C)cc2C1(C)C",
    "assay-system": "M14",
    "outcome-measure": "GI50",
    "result": "31.2 µM (inactive)"
  },
  {
    "molecule": "N#Cc1c(-c2ccccc2)c2c([nH]c1=O)-c1cc([N+](=O)[O-])ccc1CCC2",
    "assay-system": "M14",
    "outcome-measure": "GI50",
    "result": "33.1 µM (inactive)"
  },
  {
    "molecule": "CCCN1C(=O)CCC2=C1CCc1c2ccc(Cl)c1Cl",
    "assay-system": "M14",
    "outcome-measure": "GI50",
    "result": "31.9 µM (inactive)"
  }
]
